# Assay text: Single ascending dose study of Compound 2 in GT1-HCV infected patients (Part B): safety, tolerability, pharmacokinetic
# Assay type: in vivo, human
# Test context: human, in vivo, 300 mg, GT1-HCV infected patients; Compound 2 300 mg (first 300 mg line); mean±SD
Endpoint name: Cmax (ng/mL)

Compound	Result units	Numeric readout
CNc1nc(N)nc2c1ncn2[C@@H]1O[C@H](CO[P@@](=O)(N[C@@H](C)C(=O)OC(C)C)Oc2ccccc2)[C@@H](O)[C@@]1(C)F [Compound 1]	ng/mL	871
C[C@@]1(F)[C@H](O)[C@@H](CO)O[C@H]1n1cnc2c(=O)[nH]c(N)nc21 [Metabolite 1-7]	ng/mL	96.9

* * *

# Assay text: Plasma levels of metabolites following single oral doses of Compound 2, monkeys
# Type: in vivo, monkey
# Test context: monkey, plasma, po, 30 mg/kg

Compound	Tmax
CNc1nc(N)nc2c1ncn2[C@@H]1O[C@H](CO[P@@](=O)(N[C@@H](C)C(=O)OC(C)C)Oc2ccccc2)[C@@H](O)[C@@]1(C)F [Compound 2]	0.5 to 2 h

* * *

# Assay text: Single ascending dose study of Compound 2 in GT1-HCV infected patients (Part B): safety, tolerability, pharmacokinetic
# Type: in vivo, human
# Test context: human, in vivo, 300 mg, GT1-HCV infected patients; Compound 2 300 mg (second 300 mg line); mean±SD
AUC for assorted compounds

Compound	AUC (ng·h/mL)
C[C@@]1(F)[C@H](O)[C@@H](CO)O[C@H]1n1cnc2c(=O)[nH]c(N)nc21 [Metabolite 1-7]	1420
CNc1nc(N)nc2c1ncn2[C@@H]1O[C@H](CO[P@@](=O)(N[C@@H](C)C(=O)OC(C)C)Oc2ccccc2)[C@@H](O)[C@@]1(C)F	1860

* * *

# Assay text: Single ascending dose study of Compound 2 in healthy volunteers (Part A): safety, tolerability, pharmacokinetic
# Assay type: in vivo, human
# Test context: both sexes, human, in vivo, 200 mg

Line notation	Cmax
CNc1nc(N)nc2c1ncn2[C@@H]1O[C@H](CO[P@@](=O)(N[C@@H](C)C(=O)OC(C)C)Oc2ccccc2)[C@@H](O)[C@@]1(C)F	818 ng/mL

* * *

# Assay text: Plasma profiles of Compound 2 metabolites in rats
# Test context: male, Sprague-Dawley, rat, plasma, po, 500 mg/kg
# Protocol: The results for a single 500 mg/kg dose in rats is shown in FIG. 17 and the results for a single 30, 100, or 300 mg/kg dose in monkeys is shown in FIG. 18.
Endpoint name: Tmax (h)

Compound	Endpoint name	Result units	Numeric readout
CNc1nc(N)nc2c1ncn2[C@@H]1O[C@H](CO[P@@](=O)(N[C@@H](C)C(=O)OC(C)C)Oc2ccccc2)[C@@H](O)[C@@]1(C)F [Compound 1]	Tmax	h	0.25

* * *

# Assay text: Storage of Compound 1 forms and amorphous salts at 25° C./60% RH for 14 days (HPLC, XRPD, observation)
# Test context: 0 days at 25° C./60% RH

Compound	Observation
CNc1nc(N)nc2c1ncn2[C@@H]1O[C@H](CO[P@@](=O)(N[C@@H](C)C(=O)OC(C)C)Oc2ccccc2)[C@@H](O)[C@@]1(C)F [Sample 1-2]	White solid
CNc1nc(N)nc2c1ncn2C1OC(COP(=O)(NC(C)C(=O)OC(C)C)Oc2ccccc2)C(O)C1(C)F.O=S(=O)(O)O (stereo not drawn) [Sample 1-5]	White solid
CNc1nc(N)nc2c1ncn2C1OC(COP(=O)(NC(C)C(=O)OC(C)C)Oc2ccccc2)C(O)C1(C)F.CNc1nc(N)nc2c1ncn2C1OC(COP(=O)(NC(C)C(=O)OC(C)C)Oc2ccccc2)C(O)C1(C)F.O=S(=O)(O)O (stereo not drawn) [Sample 1-9]	White solid
